B1: TPR 5TU (parent)
chain: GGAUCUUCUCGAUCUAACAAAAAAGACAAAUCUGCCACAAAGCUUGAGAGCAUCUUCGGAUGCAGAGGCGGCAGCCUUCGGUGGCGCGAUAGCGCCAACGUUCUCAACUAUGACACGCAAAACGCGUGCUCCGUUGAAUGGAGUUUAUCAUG

- Variants of: B1
- procedure_text: polymerase ribozyme fitness, log enrichment relative to wild type (log ratio); higher = more active; in vitro selection for triplet polymerase activity
Variants at the floor of the assay were thinned out.
measurement_type: polymerase ribozyme fitness (log ratio)
The answer should be written as a number, with no unit following it.

### Prompt For the variant A24U G86C , report polymerase ribozyme fitness (log ratio).
### Response -2.81

### Prompt For the variant C87U C93U , report polymerase ribozyme fitness (log ratio).
### Response -2.9

### Prompt For the variant A60U C85U , report polymerase ribozyme fitness (log ratio).
### Response -1.46

### Prompt For the variant G11U A28U C43U C87A C99G G126A , report polymerase ribozyme fitness (log ratio).
### Response -4.16

### Prompt For the variant A16G G83A , report polymerase ribozyme fitness (log ratio).
### Response -0.814

### Prompt For the variant U6G A19G C38G C96A A106U , report polymerase ribozyme fitness (log ratio).
### Response -3.84
